// values below are pIC50; system is hAChE (Homo sapiens)
Sequence (P22303 32-614): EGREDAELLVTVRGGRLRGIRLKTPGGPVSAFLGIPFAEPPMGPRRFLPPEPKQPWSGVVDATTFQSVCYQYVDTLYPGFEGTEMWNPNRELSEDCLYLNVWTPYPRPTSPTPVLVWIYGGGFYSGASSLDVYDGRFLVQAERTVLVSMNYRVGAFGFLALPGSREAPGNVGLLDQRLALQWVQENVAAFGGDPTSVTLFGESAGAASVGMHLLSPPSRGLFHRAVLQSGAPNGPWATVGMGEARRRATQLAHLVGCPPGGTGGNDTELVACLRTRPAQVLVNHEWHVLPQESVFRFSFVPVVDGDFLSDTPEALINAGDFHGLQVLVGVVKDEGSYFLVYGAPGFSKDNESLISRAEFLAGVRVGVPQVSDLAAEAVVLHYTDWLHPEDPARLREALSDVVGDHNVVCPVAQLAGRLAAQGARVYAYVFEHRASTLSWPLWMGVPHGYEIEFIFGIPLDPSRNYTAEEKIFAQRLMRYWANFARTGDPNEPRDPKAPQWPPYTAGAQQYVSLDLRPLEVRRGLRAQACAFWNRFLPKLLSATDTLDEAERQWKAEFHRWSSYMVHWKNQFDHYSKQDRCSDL
Give bare numbers, as −log10 of the molar value.

Reference set, count: 5
{"Compound": "Nc1c2c(nc3c1C(c1cccc([N+](=O)[O-])c1)c1ccc(OS(=O)(=O)c4ccccc4)cc1O3)CCCC2 (centres unmarked) [4r]", "pIC50": 5.26}
{"Compound": "Nc1c2c(nc3c1C(c1ccc(Cl)c(Cl)c1)c1ccc(O)cc1O3)CCCC2 (centres unmarked) [3d]", "pIC50": 5.27}
{"Compound": "Nc1c2c(nc3c1C(c1ccc(Cl)c(Cl)c1)c1ccc(OCC(=O)c4ccc(Cl)cc4)cc1O3)CCCC2 (centres unmarked) [5d]", "pIC50": 6.60}
{"Compound": "Nc1c2c(nc3c1C(c1ccc(Cl)c(Cl)c1)c1ccc(OCC(=O)c4ccccc4)cc1O3)CCCC2 (centres unmarked) [5i]", "pIC50": 6.25}
{"Compound": "COc1ccc(S(=O)(=O)Oc2ccc3c(c2)Oc2nc4c(c(N)c2C3c2cccc([N+](=O)[O-])c2)CCCC4)cc1 (centres unmarked) [4h]", "pIC50": 5.82}

List the reported pIC50 of each compound below.
1. Nc1c2c(nc3c1C(c1cccc(Br)c1)c1ccc(OCC(=O)c4ccc(Cl)cc4)cc1O3)CCCC2 (centres unmarked) [5a]
2. Nc1c2c(nc3c1C(c1ccc(Cl)c(Cl)c1)c1ccc(OS(=O)(=O)c4ccccc4)cc1O3)CCCC2 (centres unmarked) [4s]

output:
1. 6.00
2. 5.01

Need pIC50 for each of these compounds.
1. Nc1c2c(nc3c1C(c1ccc(Cl)c(Cl)c1)c1ccc(OS(=O)(=O)c4ccc(F)cc4)cc1O3)CCCC2 (centres unmarked) [4d]
2. Nc1c2c(nc3c1C(c1cccc(Br)c1)c1ccc(O)cc1O3)CCCC2 (centres unmarked) [3a]
3. Nc1c2c(nc3c1C(c1cccc([N+](=O)[O-])c1)c1ccc(O)cc1O3)CCCC2 (centres unmarked) [3c]
4. COc1ccccc1C1c2ccc(OCC(=O)c3ccc(Cl)cc3)cc2Oc2nc3c(c(N)c21)CCCC3 (centres unmarked) [5e]

output:
[5.22, 5.46, 4.82, 6.12]

====

Assay: In vitro neurotoxicity MTT assay
Type: cell-based
Details: human, SH-SY5Y neuroblastoma cells
Readout Type: IC50 (µM)
Numbers only, in µM.

{"Compound": "Cc1ccc(S(=O)(=O)Oc2ccc3c(c2)Oc2nc4c(c(N)c2C3c2ccc(Cl)c(Cl)c2)CCCC4)cc1 (stereo not drawn)", "IC50 (µM)": 91.7}
{"Compound": "Nc1c2c(nc3c1C(c1cccc([N+](=O)[O-])c1)c1ccc(OS(=O)(=O)c4ccc(F)cc4)cc1O3)CCCC2 (stereo not drawn)", "IC50 (µM)": 27.9}
{"Compound": "COc1ccc(S(=O)(=O)Oc2ccc3c(c2)Oc2nc4c(c(N)c2C3c2cccc(OC)c2)CCCC4)cc1 (stereo not drawn)", "IC50 (µM)": 86}
{"Compound": "Nc1c2c(nc3c1C(c1ccc(Cl)c(Cl)c1)c1ccc(OCC(=O)c4ccccc4)cc1O3)CCCC2 (stereo not drawn)", "IC50 (µM)": 17.2}

Dear colleague, could you please provide IC50 for the compounds listed below?
1. Nc1c2c(nc3c1C(c1cccc([N+](=O)[O-])c1)c1ccc(OCC(=O)c4ccc(Cl)cc4)cc1O3)CCCC2 (stereo not drawn)
2. Nc1c2c(nc3c1C(c1ccc(Cl)c(Cl)c1)c1ccc(OCC(=O)c4ccc(Cl)cc4)cc1O3)CCCC2 (stereo not drawn)

output:
[36.3, 71.1]

====

Target: hMAO-B (Homo sapiens, UniProt P27338)
Sequence (P27338 1-520): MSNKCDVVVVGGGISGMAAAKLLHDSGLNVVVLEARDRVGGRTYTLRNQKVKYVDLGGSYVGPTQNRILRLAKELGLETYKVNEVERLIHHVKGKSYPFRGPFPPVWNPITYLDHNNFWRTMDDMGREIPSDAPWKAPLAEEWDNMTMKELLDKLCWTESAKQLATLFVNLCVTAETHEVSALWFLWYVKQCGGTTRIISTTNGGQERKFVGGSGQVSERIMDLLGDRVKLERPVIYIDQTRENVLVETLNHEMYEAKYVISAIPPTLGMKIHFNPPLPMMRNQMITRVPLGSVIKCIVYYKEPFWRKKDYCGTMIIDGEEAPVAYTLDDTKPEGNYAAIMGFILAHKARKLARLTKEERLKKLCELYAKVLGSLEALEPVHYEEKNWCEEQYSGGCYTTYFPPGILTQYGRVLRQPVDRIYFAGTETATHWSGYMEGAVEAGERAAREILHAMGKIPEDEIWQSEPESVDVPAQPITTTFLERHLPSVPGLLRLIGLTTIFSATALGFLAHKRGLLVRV
Readout Type: IC50
Number first, unit second: that is the form wanted.

{"Compound": "COc1ccc(S(=O)(=O)Oc2ccc3c(c2)Oc2nc4c(c(N)c2C3c2cccc(OC)c2)CCCC4)cc1 (stereo not drawn)", "IC50": "12.7 µM"}
{"Compound": "Nc1c2c(nc3c1C(c1ccc(Cl)c(Cl)c1)c1ccc(OCC(=O)c4ccccc4)cc1O3)CCCC2 (stereo not drawn)", "IC50": "1.62 µM"}
{"Compound": "Nc1c2c(nc3c1C(c1ccc(Cl)c(Cl)c1)c1ccc(OCC(=O)c4ccc(Cl)cc4)cc1O3)CCCC2 (stereo not drawn)", "IC50": "2.42 µM"}
{"Compound": "Nc1c2c(nc3c1C(c1cccc([N+](=O)[O-])c1)c1ccc(OCC(=O)c4ccc(Cl)cc4)cc1O3)CCCC2 (stereo not drawn)", "IC50": "5.15 µM"}
{"Compound": "Cc1ccc(S(=O)(=O)Oc2ccc3c(c2)Oc2nc4c(c(N)c2C3c2ccc(Cl)c(Cl)c2)CCCC4)cc1 (stereo not drawn)", "IC50": "3.73 µM"}

# context switch: different compound, same IC50
input: Report IC50 on hMAO-B (Homo sapiens, UniProt P27338) for this entry: Nc1c2c(nc3c1C(c1cccc([N+](=O)[O-])c1)c1ccc(OS(=O)(=O)c4ccc(F)cc4)cc1O3)CCCC2 (stereo not drawn)
output: 8.04 µM

====

Tested on: HepG2 cell line
Assay: In vitro hepatotoxicity MTT assay
Conditions: ratio of hepatotoxicity IC50 to AChE IC50
Assign class by safety index ratio (SI): not lower than 400 means Fulfilled; lower than 400 means Not fulfilled.

{"Compound": "Nc1c2c(nc3c1C(c1ccc(Cl)c(Cl)c1)c1ccc(OCC(=O)c4ccccc4)cc1O3)CCCC2 (stereo not drawn)", "Group": "Not fulfilled"}
{"Compound": "Cc1ccc(S(=O)(=O)Oc2ccc3c(c2)Oc2nc4c(c(N)c2C3c2ccc(Cl)c(Cl)c2)CCCC4)cc1 (stereo not drawn)", "Group": "Not fulfilled"}

input: Decide: is the reported value of safety index ratio (SI) for Nc1c2c(nc3c1C(c1cccc([N+](=O)[O-])c1)c1ccc(OCC(=O)c4ccc(Cl)cc4)cc1O3)CCCC2 (stereo not drawn) equal to or greater than 400?
output: Fulfilled

input: Reported safety index ratio (SI) at or above 400? COc1ccc(S(=O)(=O)Oc2ccc3c(c2)Oc2nc4c(c(N)c2C3c2cccc(OC)c2)CCCC4)cc1 (stereo not drawn)
output: Fulfilled

input: Please tell me: is the compound Nc1c2c(nc3c1C(c1cccc([N+](=O)[O-])c1)c1ccc(OS(=O)(=O)c4ccc(F)cc4)cc1O3)CCCC2 (stereo not drawn) at or over 400 in terms of safety index ratio (SI)?
output: Not fulfilled

input: Could you please find out whether Nc1c2c(nc3c1C(c1ccc(Cl)c(Cl)c1)c1ccc(OCC(=O)c4ccc(Cl)cc4)cc1O3)CCCC2 (stereo not drawn) has safety index ratio (SI) that meets 400 or exceeds it?
output: Fulfilled

====

List of IC50 tested on UniProtKB P06276.
Sequence (P06276 29-602): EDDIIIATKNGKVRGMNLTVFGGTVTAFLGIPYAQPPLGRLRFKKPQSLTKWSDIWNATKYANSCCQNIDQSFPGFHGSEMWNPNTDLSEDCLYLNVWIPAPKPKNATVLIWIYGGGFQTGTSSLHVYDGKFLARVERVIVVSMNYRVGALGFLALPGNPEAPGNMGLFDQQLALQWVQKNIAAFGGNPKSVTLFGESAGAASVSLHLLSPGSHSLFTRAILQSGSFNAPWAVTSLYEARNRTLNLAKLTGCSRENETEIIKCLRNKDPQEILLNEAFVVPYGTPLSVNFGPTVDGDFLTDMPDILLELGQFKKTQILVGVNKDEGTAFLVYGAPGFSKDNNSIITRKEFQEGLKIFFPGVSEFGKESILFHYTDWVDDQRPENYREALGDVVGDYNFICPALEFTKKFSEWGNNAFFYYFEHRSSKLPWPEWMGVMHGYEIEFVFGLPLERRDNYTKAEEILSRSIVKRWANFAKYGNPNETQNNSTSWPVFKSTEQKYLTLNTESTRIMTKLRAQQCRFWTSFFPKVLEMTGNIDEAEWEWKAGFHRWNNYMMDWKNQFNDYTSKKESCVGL
One number for each entry, in nM.

Some solved cases for reference:
{"Molecule": "Cc1ccc(S(=O)(=O)Oc2ccc3c(c2)Oc2nc4c(c(N)c2C3c2ccc(Cl)c(Cl)c2)CCCC4)cc1 (centres unmarked)", "Test Value": 180}
{"Molecule": "COc1ccc(S(=O)(=O)Oc2ccc3c(c2)Oc2nc4c(c(N)c2C3c2cccc(OC)c2)CCCC4)cc1 (centres unmarked)", "Test Value": 350}
{"Molecule": "Nc1c2c(nc3c1C(c1ccc(Cl)c(Cl)c1)c1ccc(OCC(=O)c4ccc(Cl)cc4)cc1O3)CCCC2 (centres unmarked)", "Test Value": 140}
{"Molecule": "Nc1c2c(nc3c1C(c1ccc(Cl)c(Cl)c1)c1ccc(OCC(=O)c4ccccc4)cc1O3)CCCC2 (centres unmarked)", "Test Value": 260}

Moving on to another molecule below.
input: Return reported IC50. Input molecule: Nc1c2c(nc3c1C(c1cccc([N+](=O)[O-])c1)c1ccc(OS(=O)(=O)c4ccc(F)cc4)cc1O3)CCCC2 (centres unmarked)
output: 690

====

Answer each item with its documented inhibition at 10 µM.
Molecular target: Aβ1–42 (Homo sapiens)
Sequence (P05067 672-713): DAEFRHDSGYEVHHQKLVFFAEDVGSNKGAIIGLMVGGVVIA
Experiment: Self-induced Aβ1–42 aggregation inhibition
Type: biochemical
Conditions: read-out: Aβ1–42 (% inhibition at 10 μM)
Numbers only, in %.

Field: example entries. Status: answers known.
{"Compound": "Nc1c2c(nc3c1C(c1cccc([N+](=O)[O-])c1)c1ccc(OCC(=O)c4ccc(Cl)cc4)cc1O3)CCCC2 (stereo not drawn) [5c]", "Target Under Test": "Aβ1–42 (Homo sapiens)", "Unit Name": "%", "Test Value": 59}
{"Compound": "COc1cc(/C=C/C(=O)CC(=O)/C=C/c2ccc(O)c(OC)c2)ccc1O [Curcumin, reference compound]", "Target Under Test": "Aβ1–42 (Homo sapiens)", "Unit Name": "%", "Test Value": 44}

From here, focus on the item given below.
input: Indicate its recorded inhibition at 10 µM; the compound in question is COc1ccc(S(=O)(=O)Oc2ccc3c(c2)Oc2nc4c(c(N)c2C3c2cccc(OC)c2)CCCC4)cc1 (stereo not drawn) [4g]
output: 43
